# assay-target: human D2 receptor (short isoform, D2S) (Homo sapiens)
# assay-text: cell-based
# Format: binding
# condition: Surface D2 receptor (Q-/MTSET-) KI(s)
measured-quantity: pKi
Just the number, please; pKi means minus log10 of the concentration in mol/L.

Ask | Specify pKi for C=CCN1CCC[C@H]1CNC(=O)c1cc(CCCF)cc(OC)c1OC [Fallypride] and stop.
Reply | 9.49

###

# assay-target: human D2 receptor (short isoform, D2S) (Homo sapiens, UniProt P14416)
# Sequence (P14416 1-414 isoform P14416-2): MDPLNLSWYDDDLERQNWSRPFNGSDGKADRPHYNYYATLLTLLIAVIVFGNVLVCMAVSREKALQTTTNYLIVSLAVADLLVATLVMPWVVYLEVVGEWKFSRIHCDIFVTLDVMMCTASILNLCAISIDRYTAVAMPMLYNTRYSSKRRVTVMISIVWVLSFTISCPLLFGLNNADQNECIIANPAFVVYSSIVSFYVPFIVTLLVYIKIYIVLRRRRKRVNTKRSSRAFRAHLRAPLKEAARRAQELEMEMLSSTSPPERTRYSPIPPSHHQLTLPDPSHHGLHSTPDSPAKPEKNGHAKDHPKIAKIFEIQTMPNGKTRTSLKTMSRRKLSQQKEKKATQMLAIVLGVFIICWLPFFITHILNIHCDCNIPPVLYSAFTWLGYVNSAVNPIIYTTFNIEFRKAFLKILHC
# assay-text: cell-based
# Type: binding
# condition: read-out: Internalized D2 receptor (Q+/MTSET+) KI(i)
measured-quantity: Ki (nM)
Record the value in nM, omitting the unit from your answer.

- smiles-string: "CCN1CCC[C@H]1CNC(=O)c1c(OC)ccc(I)c1O"
  assay-target: "human D2 receptor (short isoform, D2S) (Homo sapiens, UniProt P14416)"
  unit-string: "nM"
  Ki: 0.23

// next entry
Ask | Fill in Ki for record `CCN1CCC[C@H]1CNC(=O)c1cc(Br)cc(OC)c1OC`
Reply | 0.09
